experiment: MTT assay, Aβ1‐42‐induced toxicity in PC12 cells; assay type: cell-based, Rattus norvegicus; conditions: rat; PC12 cells, CHT1 20 μM, after 48 h, MTT; read-out: Viability percentage of that of the control
experimental_endpoint: viability at 48 h, 20 μM
Lab note: write values as number then unit, every time.

viability at 48 h, 20 μM lookup needed for COc1ccc(C=C2SC(O)=NC2=O)cc1 [CHT1] , thanks.
66.5%

----------
Reported pIC50 values are given for each entry in this list.
target: BChE (Homo sapiens, UniProt P06276); assay: BChE inhibition assay (Ellman's method); format: biochemical
Sequence (P06276 29-602, species assumed): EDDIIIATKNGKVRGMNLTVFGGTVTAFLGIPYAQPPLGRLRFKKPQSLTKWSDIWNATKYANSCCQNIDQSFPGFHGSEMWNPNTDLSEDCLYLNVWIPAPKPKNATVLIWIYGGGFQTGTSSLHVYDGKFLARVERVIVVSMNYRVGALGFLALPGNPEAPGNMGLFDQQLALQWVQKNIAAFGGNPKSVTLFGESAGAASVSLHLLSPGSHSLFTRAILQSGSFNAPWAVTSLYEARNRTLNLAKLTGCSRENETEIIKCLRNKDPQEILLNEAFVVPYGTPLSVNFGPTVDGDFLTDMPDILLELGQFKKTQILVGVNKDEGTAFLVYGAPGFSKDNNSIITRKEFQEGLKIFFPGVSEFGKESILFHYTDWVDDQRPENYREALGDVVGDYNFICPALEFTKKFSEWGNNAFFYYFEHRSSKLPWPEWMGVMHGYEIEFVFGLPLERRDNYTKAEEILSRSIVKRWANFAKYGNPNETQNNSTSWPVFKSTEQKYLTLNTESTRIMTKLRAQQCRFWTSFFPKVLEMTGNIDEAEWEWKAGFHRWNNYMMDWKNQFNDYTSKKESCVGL
Note on units: pIC50 is unitless, being -log10 of a concentration expressed in mol/L.

Below are worked cases with known answers.
O=C1N=C(O)SC1=Cc1ccc(Cl)cc1 [CHT2]
6.90
O=C1NC(=O)C(=Cc2ccccc2O)S1 [CHT4]
6.99
COc1ccc(C=C2SC(O)=NC2=O)cc1 [CHT1]
7.16
O=C1NC(=O)C(=Cc2cccc3ccccc23)S1 [CHT5]
6.85

Value wanted: pIC50 (BChE (Homo sapiens, UniProt P06276)) of entry O=C1NC(=O)C(=Cc2cccc(O)c2)S1 [CHT3]
7.09
